System: K4 kissing-loop RNA reporter;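 note: bound reporter read as fluorescence of individual clusters on recovered sequencing chips by microscopy, with normalized cluster intensities fitted with a binding model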
Assay: apparent KD of K4 kissing-loop reporter; higher = weaker reporter binding
Condition details: Eterna round: R107; input ligand: tryptophan 2.4 mM
Use 700 nM as the dividing line for apparent KD of K4 kissing-loop reporter, with the line itself on the Criterion met side and lower values as Criterion not met.

AACUGUCAAGGACAACAUUACUGAGGUGAUACCAGCAUCGAAAGAUGCCCUUGGCAGCACCGACUUGCAGUGAUGUUGCAAGUAA [BrourdMod 11 - Jieux - Exclusion - Theophylline A]; Criterion not met
AGGCACGAGCAAGGAUAUCGAGUAGAGUGAUGUUCUGCCUGGGUUGGCCCGAAAGGGCCUUCCCAGCGAGAAGGUGCUCGUGCCU [#2 Same State - FMN A Attempt #9 (HarryS)]; Criterion met
UGGAGUUGACGAAAAGUCAACUCCCGAGAAGGAGCGGACGAAAGUCCAGGUAGGUCGCUCGCUACCAGUGAUGUUGGUACGUAAA; Criterion not met
UGAUACCAGACGGCCGCCACUCUUGCAGUCAAAGACUGCUAAAAGGAAAUCGUCCAGUGAUGUUGGAGGACCGGGUCUGGUAUCU [TrypBX 15 #SwitchBubble #Palindromic #StaticStem]; Criterion met
ACAGUACCGGGAAGGAGCGUGAAUGAGAAUGGAUAUAGUGAUGUUAUGUAUACGAACGAAUCGCAGGUAGGUCGCCCGGAUCCCU [SSArgB.aD]; Criterion not met

Would you kindly look at the next entry?
Query: Determine whether measured apparent KD of K4 kissing-loop reporter meets or exceeds 700 nM for AGUGAUGUUGUGUUAUCUUAGUGAAGUGAUCGAGGACCGGUACGGCCGCCACUCGAGUGAUGAGUGAGUGAUGUUUGUUUAGGGA [vvbmullin]
Response: Criterion not met

###

Tested on: MS2 coat protein
Assay: apparent KD of MS2 coat protein; designed switch direction (-1 OFF switch, 1 ON switch): 1; higher = weaker reporter binding
Condition details: input ligand: FMN 200 uM
Parameter: apparent KD of MS2 coat protein. Scope: all listed entries.
Note: state the figure and append the unit.

In plain terms, UAUCGUUUGAUAGGAUAUCGCUAUACAUGAGGAUCACCCAUGUUUACCACGCUGGUUUUUCAUACCGAGAAGGAUUCUGAUGAA [salish99_SSNG02_r04_004] (Eterna round: R96, puzzle: Same State NG 2) has a documented apparent KD of MS2 coat protein of 29 nM

In plain terms, GAAUAGUUGAGAGGAUAUGGAUUAUUGUAGGAUCCAGAAGGUUUUAACAUGAGGAUCACCCAUGUAGGACUAUAUAUGUGAAUA [Parity 97 - Jieux - Same State NG 1] (Eterna round: R96, puzzle: Same State NG 1) has a documented apparent KD of MS2 coat protein of 13.1 nM

In plain terms, UCUUGGUUUUUGCUCGUUUUUUGUGUUGAACAUGAGGAUCACCCAUGUAUUGUACAAUCCAAUUUAAUAAUGGUCCG [JMF 48] (Eterna round: R96, puzzle: Sensor for hsa-mir-208a) has a documented apparent KD of MS2 coat protein of 105 nM

In plain terms, GUAGCAUACCGAGGAUAUUCAUAAUACAUGAGGAUCACCCAUGUUAAUAAUAGGCGAAAGCCUUGGGAGAAGGCGGAAUGCUAC [Xeonanis - 20 Mod69] (Eterna round: R96, puzzle: Same State NG 2) has a documented apparent KD of MS2 coat protein of 11.4 nM

In plain terms, UGAAUGGUGAUAGGAUAUACAUGAGGAAUCCUCGUAGAAGGAUCAUGACAUGAGGAUCACCCAUGUAGCGCUCCGUAGAGCGCA [JL SSNG1 1.21] (Eterna round: R96, puzzle: Same State NG 1) has a documented apparent KD of MS2 coat protein of 53 nM
